- Tested on: Influenza B virus
- experimental protocol: Antiviral activity against influenza B virus assessed as inhibition of viral induced cytopathic effect
- Format: functional, organism-based
pEC50: −log10 of the molar value.
# maps each entry to its pEC50

molecule: COC(=O)[C@@H]1NC(=O)[C@H]2NC(=O)[C@H](NC(=O)[C@@H]3NC(=O)[C@H]4NC(=O)[C@H](NC(=O)[C@H](n5cc(CO[C@H]6O[C@H](COC(C)=O)[C@@H](OC(C)=O)[C@H](OC(C)=O)[C@H]6OC(C)=O)nn5)c5ccc(O)c(c5)Oc5cc4cc(O)c5C)[C@H](O)c4ccc(cc4)Oc4cc3cc(c4O)Oc3ccc(cc3)[C@H]2O)c2ccc(O)c(c2)-c2c(O)cc(O)cc21
qualifier sign: <
pEC50: 4.00
//
molecule: NC(=O)c1ncn([C@@H]2O[C@H](CO)[C@@H](O)[C@H]2O)n1
qualifier sign: =
pEC50: 5.40

====

- System: Influenza B virus
- experimental protocol: Antiviral activity against influenza B virus assessed as cell viability by cell based MTS assay
- Type: functional, organism-based
pEC50: −log10 of the molar value.
measure name: pEC50

compound: COC(=O)[C@@H]1NC(=O)[C@H]2NC(=O)[C@H](NC(=O)[C@@H]3NC(=O)[C@H]4NC(=O)[C@H](NC(=O)[C@H](n5cc(CO[C@H]6O[C@H](CO)[C@@H](O)[C@H](O)[C@H]6O)nn5)c5ccc(O)c(c5)Oc5cc4cc(O)c5C)[C@H](O)c4ccc(cc4)Oc4cc3cc(c4O)Oc3ccc(cc3)[C@H]2O)c2ccc(O)c(c2)-c2c(O)cc(O)cc21
assayed target: Influenza B virus
qualifier sign: =
number: 4.48
//
compound: NC(=O)c1ncn([C@@H]2O[C@H](CO)[C@@H](O)[C@H]2O)n1 [RIBAVIRIN]
assayed target: Influenza B virus
qualifier sign: =
number: 5.33
//
compound: COC(=O)[C@@H]1NC(=O)[C@H]2NC(=O)[C@H](NC(=O)[C@@H]3NC(=O)[C@H]4NC(=O)[C@H](NC(=O)[C@H](n5cc(CO[C@H]6O[C@H](CO)[C@@H](O[C@H]7O[C@H](CO)[C@@H](O)[C@H](O)[C@H]7O)[C@H](O)[C@H]6O)nn5)c5ccc(O)c(c5)Oc5cc4cc(O)c5C)[C@H](O)c4ccc(cc4)Oc4cc3cc(c4O)Oc3ccc(cc3)[C@H]2O)c2ccc(O)c(c2)-c2c(O)cc(O)cc21
assayed target: Influenza B virus
qualifier sign: =
number: 4.21
//
compound: NC12CC3CC(CC(C3)C1)C2 [AMANTADINE]
assayed target: Influenza B virus
qualifier sign: <
number: 3.30

====

- Test system: Staphylococcus epidermidis
- experimental protocol: Antibacterial activity against Staphylococcus epidermidis by broth microdilution method
- Assay type: functional

molecule: COC(=O)[C@@H]1NC(=O)[C@H]2NC(=O)[C@H](NC(=O)[C@@H]3NC(=O)[C@H]4NC(=O)[C@H](NC(=O)[C@H](n5cc(CO[C@H]6O[C@H](COC(C)=O)[C@@H](OC(C)=O)[C@H](OC(C)=O)[C@H]6OC(C)=O)nn5)c5ccc(O)c(c5)Oc5cc4cc(O)c5C)[C@H](O)c4ccc(cc4)Oc4cc3cc(c4O)Oc3ccc(cc3)[C@H]2O)c2ccc(O)c(c2)-c2c(O)cc(O)cc21
MBC [µg/mL]: 16

molecule: COC(=O)[C@@H]1NC(=O)[C@H]2NC(=O)[C@H](NC(=O)[C@@H]3NC(=O)[C@H]4NC(=O)[C@H](NC(=O)[C@H](n5cc(CO[C@H]6O[C@H](COC(C)=O)[C@@H](O[C@H]7O[C@H](COC(C)=O)[C@@H](OC(C)=O)[C@H](OC(C)=O)[C@H]7OC(C)=O)[C@H](OC(C)=O)[C@H]6OC(C)=O)nn5)c5ccc(O)c(c5)Oc5cc4cc(O)c5C)[C@H](O)c4ccc(cc4)Oc4cc3cc(c4O)Oc3ccc(cc3)[C@H]2O)c2ccc(O)c(c2)-c2c(O)cc(O)cc21
MBC [µg/mL]: 16

molecule: COC(=O)[C@@H]1NC(=O)[C@H]2NC(=O)[C@H](NC(=O)[C@@H]3NC(=O)[C@H]4NC(=O)[C@H](NC(=O)[C@H](n5cc(CO[C@H]6O[C@H](COC(C)=O)[C@@H](OC(C)=O)[C@H](OC(C)=O)[C@H]6NC(C)=O)nn5)c5ccc(O)c(c5)Oc5cc4cc(O)c5C)[C@H](O)c4ccc(cc4)Oc4cc3cc(c4O)Oc3ccc(cc3)[C@H]2O)c2ccc(O)c(c2)-c2c(O)cc(O)cc21
MBC [µg/mL]: 4

molecule: COC(=O)[C@@H]1NC(=O)[C@H]2NC(=O)[C@H](NC(=O)[C@@H]3NC(=O)[C@H]4NC(=O)[C@H](NC(=O)[C@H](n5cc(CO[C@H]6O[C@H](CO)[C@@H](O)[C@H](O)[C@H]6NC(C)=O)nn5)c5ccc(O)c(c5)Oc5cc4cc(O)c5C)[C@H](O)c4ccc(cc4)Oc4cc3cc(c4O)Oc3ccc(cc3)[C@H]2O)c2ccc(O)c(c2)-c2c(O)cc(O)cc21
MBC [µg/mL]: 4

molecule: COC(=O)[C@@H]1NC(=O)[C@H]2NC(=O)[C@H](NC(=O)[C@@H]3NC(=O)[C@H]4NC(=O)[C@H](NC(=O)[C@H](n5cc(CO[C@H]6O[C@H](COC(C)=O)[C@@H](OC(C)=O)[C@H](OC(C)=O)[C@@H]6OC(C)=O)nn5)c5ccc(O)c(c5)Oc5cc4cc(O)c5C)[C@H](O)c4ccc(cc4)Oc4cc3cc(c4O)Oc3ccc(cc3)[C@H]2O)c2ccc(O)c(c2)-c2c(O)cc(O)cc21
MBC [µg/mL]: 4
